Reference for the values: ChEMBL document CHEMBL3885861

This section presents compounds with their documented KIDNEY_TOTAL values.
species: Rattus norvegicus; assay: Open TG-GATES - Regimen: Single; type: toxicity, organism-based, Sprague-Dawley; parameters: regimen Single, gender Male, age 6 weeks; settings: in vivo, po, 10 mg/kg, 9 h, tissue Kidney, route gavage, dose level Low
Answer with a number only, understood to be in g.

See these solved cases before continuing.
CN(C)CCCN1c2ccccc2CCc2ccccc21 [IMIPRAMINE] | 1.8
CC1=C(/C=C/C(C)=C/C=C/C(C)=C/CO)C(C)(C)CCC1 [RETINOL] | 1.8
CN(C)CCCN1c2ccccc2CCc2ccc(Cl)cc21 [CLOMIPRAMINE] | 1.9
CC(C)OC(=O)C(C)(C)Oc1ccc(C(=O)c2ccc(Cl)cc2)cc1 [FENOFIBRATE] | 1.6

Moving on to the next compound.
IN: KIDNEY_TOTAL lookup needed for CN(C)CCN(Cc1cccs1)c1ccccn1 , thanks.
OUT: 1.7
